Just for reference, PubChem BioAssay (NCATS) is where these values come from.

Assay: AP1 Signaling Pathway (AID 357);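 further: ME-180 reporter cells stimulated with EGF at its EC50 level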
Conditions: ME-180 (cervical carcinoma) AP-1-bla reporter, EGF-induced, beta-lactamase ratio, 5 h; at 17.2 µM (top of the series) unless noted
Inconclusive results are not listed. Activity calls are given as the source filed them. The call rests on the fitted dose curve; in most records, active means well fitted curve in either direction with a large enough effect (not every such curve was filed as active); inconclusive means small, poorly fitted or top-dose-only effect, or another doubt; inactive means flat fitted curve, though single readings scatter.
Outcomes: active, inactive

>  <Molecule>
CCC1(C)Cc2c(sc3c2c(=O)n(C)c2nnc(SCC(=O)c4ccc(Cl)cc4)n32)CO1 (configuration not stated)

>  <Discrete label>
inactive

$$$$
>  <Molecule>
Cc1c(/C(O)=C2\C(=O)C(=O)N(CCN(C)C)C2c2cccnc2)cnn1-c1ccccc1 (configuration not stated)

>  <Discrete label>
inactive

$$$$
>  <Molecule>
COc1ccccc1N(O)C1CC(=O)N(c2ccc(Br)cc2)C1=O (configuration not stated)

>  <Discrete label>
inactive

$$$$
>  <Molecule>
CC1N(O)C(c2ccc(Cl)cc2Cl)N(O)C1(C)C (configuration not stated)

>  <Discrete label>
inactive

$$$$
>  <Molecule>
O=C1C2ON(c3ccccc3)C(c3ccncc3)C2C(=O)N1c1ccc(Br)cc1 (configuration not stated)

>  <Discrete label>
inactive

$$$$
>  <Molecule>
Clc1ccc(SCc2cn3ccsc3n2)cc1

>  <Discrete label>
inactive

$$$$
>  <Molecule>
Cc1nc(=O)c(-c2ccccc2)c(C)n1-c1ccc(S(N)(=O)=O)cc1

>  <Discrete label>
inactive

$$$$
>  <Molecule>
O=c1cc(NCc2ccccc2)nc2n1CCCS2

>  <Discrete label>
inactive

$$$$
>  <Molecule>
CC(C)(C)c1cccc(/C=N/O)c1O

>  <Discrete label>
inactive

$$$$
>  <Molecule>
CC1=C(C(=O)Nc2ccccc2)C(c2ccncc2)C(C#N)=C(SCC(=O)NC(C)C)N1 (configuration not stated)

>  <Discrete label>
inactive

$$$$
>  <Molecule>
COCCNc1nc(-c2ccc(N(C)C)cc2)nc2ccccc12

>  <Discrete label>
inactive

$$$$
>  <Molecule>
O=C(Oc1ccccc1N1C(=O)CCC1=O)c1ccco1

>  <Discrete label>
inactive

$$$$
>  <Molecule>
COc1ccc2[nH]cc(C(=O)CN(C)CCc3ccc(OC)c(OC)c3)c2c1

>  <Discrete label>
inactive

$$$$
>  <Molecule>
CCC(C)Nc1nc(OC)nc(N(C)C#N)n1 (configuration not stated)

>  <Discrete label>
inactive

$$$$
>  <Molecule>
CSc1nnc(C)c(=O)[nH]1

>  <Discrete label>
inactive

$$$$
>  <Molecule>
Cn1c(=O)c2c3c(sc2n2c(SCc4ccccc4)nnc12)CCCC3

>  <Discrete label>
inactive

$$$$
>  <Molecule>
Oc1ccc(Br)cc1-c1cc(-c2ccccc2F)[nH]n1

>  <Discrete label>
inactive

$$$$
>  <Molecule>
Nc1ccc2oc(-c3cc(Br)ccc3Cl)nc2c1

>  <Discrete label>
inactive

$$$$
>  <Molecule>
Oc1c(C=Nc2cccnc2)sc2ccccc12

>  <Discrete label>
inactive

$$$$
>  <Molecule>
Cc1nc(SCC(=O)Nc2ccc3c(c2)OCO3)c(C#N)c2c1CCCC2

>  <Discrete label>
inactive

$$$$
>  <Molecule>
COC(=O)CSc1nc2c(c(=O)n(C)c(=O)n2C)n1CCC(C)C

>  <Discrete label>
inactive

$$$$
>  <Molecule>
CN(C)CCCOC(=O)C1c2ccccc2Oc2ccccc21

>  <Discrete label>
inactive

$$$$
>  <Molecule>
CC1(C)Cc2c(C#N)c(N3CCOCC3)nc(-c3ccccc3)c2CO1

>  <Discrete label>
inactive

$$$$
>  <Molecule>
CCCSc1nc(N2CCCC2)c2c(c1C#N)CC(C)(C)OC2

>  <Discrete label>
inactive

$$$$
>  <Molecule>
CC(=O)c1c(C)c2c(n1CCN(C)C)CCCC2

>  <Discrete label>
active

$$$$
>  <Molecule>
N#Cc1cccc(-n2c(-c3ccccc3)nnc2-c2ccccc2)c1C#N

>  <Discrete label>
inactive

$$$$
>  <Molecule>
CN1CCc2c(n(CC(O)CN3C(=O)c4ccccc4S3(=O)=O)c3ccccc23)C1=O (configuration not stated)

>  <Discrete label>
inactive

$$$$
